Overview of recorded pIC50 for various compounds
Biological target: Bile salt export pump (Homo sapiens, UniProt O95342)
Experiment: Inhibition of human BSEP expressed in fall armyworm sf9 cell plasma membrane vesicles assessed as reduction in vesicle-associated [3H]-taurocholate transport preincubated for 10 mins prior to ATP addition measured after 15 mins in presence of [3H]-taurocholate by topcount based membrane vesicle transport assay
Format: ADME
pIC50: −log10 of the molar value. Where a name gives a salt, the structure may show the parent alone.

For orientation, consider the following solved cases.
compound: CC(C)CN(C[C@@H](O)[C@H](Cc1ccccc1)NC(=O)O[C@H]1CCOC1)S(=O)(=O)c1ccc(N)cc1
observation.type: pIC50
result: 4.35 to 4.60
--
compound: C=C[C@H]1C[N@@]2CC[C@H]1C[C@H]2[C@H](O)c1ccnc2ccc(OC)cc12 [QUININE]
observation.type: pIC50
result: < 3.87
--
compound: CN(Cc1cnc2nc(N)nc(N)c2n1)c1ccc(C(=O)N[C@@H](CCC(=O)O)C(=O)O)cc1 [METHOTREXATE]
observation.type: pIC50
result: < 3.87
--
compound: CC1=NS(=O)(=O)c2cc(Cl)ccc2N1 [DIAZOXIDE]
observation.type: pIC50
result: < 3.87
--
compound: Nc1nc(N)c2nc(-c3ccccc3)c(N)nc2n1
observation.type: pIC50
result: < 3.87
--
compound: Cc1ccc(NC(=O)c2ccc(CN3CCN(C)CC3)cc2)cc1Nc1nccc(-c2cccnc2)n1 [IMATINIB]
observation.type: pIC50
result: 4.60

## Input So what pIC50 did CCOC(=O)C1=C(C)NC(C)=C(C(=O)OC)C1c1cccc([N+](=O)[O-])c1 (configuration not stated) [NITRENDIPINE] get with Bile salt export pump (Homo sapiens, UniProt O95342)?
## Output 4.35 to 4.60

## Input So what pIC50 did `O=C(O)c1ccccc1-c1c2ccc(=O)cc-2oc2cc(O)ccc12` get with Bile salt export pump (Homo sapiens, UniProt O95342)?
## Output < 3.87

## Input So what pIC50 did O=C(O)CCCc1ccc(N(CCCl)CCCl)cc1 [CHLORAMBUCIL] get with Bile salt export pump (Homo sapiens, UniProt O95342)?
## Output < 3.87

## Input So what pIC50 did COCC(=O)O[C@]1(CCN(C)CCCc2nc3ccccc3[nH]2)CCc2cc(F)ccc2[C@@H]1C(C)C [MIBEFRADIL] get with Bile salt export pump (Homo sapiens, UniProt O95342)?
## Output 4.35 to 4.60

## Input So what pIC50 did `COc1ccccc1N1CCN(CCCNc2cc(=O)n(C)c(=O)n2C)CC1` get with Bile salt export pump (Homo sapiens, UniProt O95342)?
## Output < 3.87

## Input So what pIC50 did CS(=O)(=O)OCCCCOS(C)(=O)=O [BUSULFAN] get with Bile salt export pump (Homo sapiens, UniProt O95342)?
## Output < 3.87

## Input So what pIC50 did C#CCN(C)[C@H](C)Cc1ccccc1 [SELEGILINE HYDROCHLORIDE] get with Bile salt export pump (Homo sapiens, UniProt O95342)?
## Output < 3.87

## Input So what pIC50 did CC(=O)Oc1ccccc1C(=O)O [ASPIRIN] get with Bile salt export pump (Homo sapiens, UniProt O95342)?
## Output < 3.87

## Input So what pIC50 did CC(C)[C@@H]1NC(=O)[C@H](C)OC(=O)[C@@H](C(C)C)NC(=O)[C@@H](C(C)C)OC(=O)[C@H](C(C)C)NC(=O)[C@H](C)OC(=O)[C@@H](C(C)C)NC(=O)[C@@H](C(C)C)OC(=O)[C@H](C(C)C)NC(=O)[C@H](C)OC(=O)[C@@H](C(C)C)NC(=O)[C@@H](C(C)C)OC1=O [VALINOMYCIN] get with Bile salt export pump (Homo sapiens, UniProt O95342)?
## Output 5.80

## Input So what pIC50 did COc1cccc2c1C(=O)c1c(O)c3c(c(O)c1C2=O)C[C@@](O)(C(=O)CO)C[C@@H]3O[C@H]1C[C@H](N)[C@H](O)[C@H](C)O1 [DOXORUBICIN] get with Bile salt export pump (Homo sapiens, UniProt O95342)?
## Output < 3.87

## Input So what pIC50 did CCOC(=O)C(C)(C)Oc1ccc(Cl)cc1 [CLOFIBRATE] get with Bile salt export pump (Homo sapiens, UniProt O95342)?
## Output 4.12 to 4.22

## Input So what pIC50 did COc1cc2nc(N3CCN(C(=O)c4ccco4)CC3)nc(N)c2cc1OC [PRAZOSIN] get with Bile salt export pump (Homo sapiens, UniProt O95342)?
## Output < 3.87

## Input So what pIC50 did NC[C@@H]1O[C@H](O[C@H]2[C@@H](O)[C@H](O[C@@H]3[C@@H](O)[C@H](N)C[C@H](N)[C@H]3O[C@H]3O[C@H](CN)[C@@H](O)[C@H](O)[C@H]3N)O[C@@H]2CO)[C@H](N)[C@@H](O)[C@@H]1O [FRAMYCETIN] get with Bile salt export pump (Homo sapiens, UniProt O95342)?
## Output < 3.87

## Input So what pIC50 did CCc1nn(CCCN2CCN(c3cccc(Cl)c3)CC2)c(=O)n1CCOc1ccccc1 [NEFAZODONE] get with Bile salt export pump (Homo sapiens, UniProt O95342)?
## Output 5.21

## Input So what pIC50 did Nc1nc2c(ncn2COCCO)c(=O)[nH]1 [ACYCLOVIR] get with Bile salt export pump (Homo sapiens, UniProt O95342)?
## Output < 3.87

## Input So what pIC50 did O=C(NC1CCN(CCc2c[nH]c3ccccc23)CC1)c1ccccc1 [INDORAMIN] get with Bile salt export pump (Homo sapiens, UniProt O95342)?
## Output < 3.87
